measured.target: T1, mouse IL-2Rγ (mouse, UniProt P34902 23-263)
T1 construct: also called mo IL-2R
T1 sequence (looked up): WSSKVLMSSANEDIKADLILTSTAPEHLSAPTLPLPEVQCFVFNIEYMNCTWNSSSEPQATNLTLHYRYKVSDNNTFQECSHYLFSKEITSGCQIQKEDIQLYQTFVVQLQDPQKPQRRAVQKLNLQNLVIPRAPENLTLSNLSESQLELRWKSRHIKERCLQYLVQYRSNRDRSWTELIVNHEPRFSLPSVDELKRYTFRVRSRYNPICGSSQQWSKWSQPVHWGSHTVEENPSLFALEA
assay.method.text: PE binding ELISA, periplasmic extract on coated protein
measurement.name: OD (PE binding ELISA) (OD450 nm)
The figure you give is taken to be in OD450 nm; do not add the unit.

Recorded result, FJ1427_P035MP04C06 (VHH, VHH in periplasmic extract; also called clone nr) VHH: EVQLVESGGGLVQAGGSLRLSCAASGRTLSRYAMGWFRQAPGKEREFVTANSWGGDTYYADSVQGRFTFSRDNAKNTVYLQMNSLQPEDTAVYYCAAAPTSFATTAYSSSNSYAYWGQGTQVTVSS , OD (PE binding ELISA): 0.061

In plain terms, FJ1427_P035MP04H01 (VHH, VHH in periplasmic extract; also called clone nr) VHH: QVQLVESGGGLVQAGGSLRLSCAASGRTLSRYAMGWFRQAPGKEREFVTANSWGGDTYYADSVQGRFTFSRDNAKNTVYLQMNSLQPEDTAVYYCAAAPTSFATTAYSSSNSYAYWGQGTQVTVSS has a documented OD (PE binding ELISA) of 0.109

Note to self: OD (PE binding ELISA) recorded for 37-MP07F09 (VHH, VHH in periplasmic extract; also called FJ1427_P035MP07F09; clone nr) VHH: QVQLVESGGGLVQAGGSLRLSCAASGRTLSRYAMGWFRQAPGKEREYVAIDSWGGDTFYADSVEGRFTFSRDNAKNEVYLQMNSLQPEDTAVYYCAGAPTSFATTAYSSSNSYRYWGQGTQVTVSS was 1.49

The recorded OD (PE binding ELISA) for 34-MP04A12 (VHH, VHH in periplasmic extract; also called FJ1427_P035MP04A12; clone nr) VHH: QVQLVESGGGLVQAGSSLRLSCAASGRTLSRLAMGWFRQAPGKEREFVAVNSWGGDTFYADSVEGRFTYSRDNAKSAVYLQMNSLQPEDTAVYYCAAAPTSFATTAYSSSNSYAYWGQGAQVTVSS is 3.6

Note to self: OD (PE binding ELISA) recorded for 28-MP04D02 (VHH, VHH in periplasmic extract; also called FJ1427_P035MP04D02; clone nr; 300) VHH: QVQLVESGGGLVQAGGSLRLSCAASGRTLSRYAMGWFRQAPGKEREFVTANSWGGDTYYADSVQGRFTFSRDNAKNTVYLQMNSLQPEDTAVYYCAAAPTSFATTAYSGSNSYAYWGQGTQVTVSS was 0.054

// OD (PE binding ELISA) lookup, binder = FJ1427_P035MP04D03 (VHH, VHH in periplasmic extract; also called clone nr) VHH: EVQLVESGGGLVQAEGSLRLSCAASGRTLSRYAMGWFRQAPGKEREFVTANSWGGDTYYADSVQGRFTFSRDNAKNTVYLQMNSLQPEDTAVYYCAAAPTSFATTAYSSSNSYAYWGQGTQVTVSS , result: 0.063

FJ1427_P035MP04D01 (VHH, VHH in periplasmic extract; also called clone nr) VHH: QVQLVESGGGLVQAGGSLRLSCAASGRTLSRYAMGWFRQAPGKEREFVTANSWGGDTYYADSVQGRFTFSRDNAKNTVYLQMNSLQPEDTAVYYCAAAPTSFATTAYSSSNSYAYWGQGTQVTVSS has a reported OD (PE binding ELISA) of 0.066

Notebook: FJ1427_P035MP04F03 (VHH, VHH in periplasmic extract; also called clone nr; 310) VHH: QVQLVESGGGLVQAGGSLRLSCAASGRTLSRNAMGWFRQAPGKEREFVAADSWGGDTFYADSVEGRFTFSRDNAKNAVYLQMNSLQPEDTAVYYCAGAPTSFATTAYSSSNSYRYWGQGTQVTVSS , OD (PE binding ELISA) read as 0.3

The recorded OD (PE binding ELISA) for FJ1427_P035MP04D06 (VHH, VHH in periplasmic extract; also called clone nr) VHH: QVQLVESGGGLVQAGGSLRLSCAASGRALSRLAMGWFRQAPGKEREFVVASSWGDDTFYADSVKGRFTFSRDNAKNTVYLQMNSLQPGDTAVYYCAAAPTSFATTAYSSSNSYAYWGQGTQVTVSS is 0.637

# OD (PE binding ELISA) of FJ1427_P035MP04H03 (VHH, VHH in periplasmic extract; also called clone nr) VHH: QLQLVESGGGLVQAGGSLRLSCAASGRTLSRYAMGWFRQAPGKEREFVAADSWGGDTFYADSVEGRFTFSRDNAKNAAYLQMNSLQPEDTATYYCAGAPTSFATTAYSSSNSYRYWGQGTQVTVSS = 0.442

The reported value for 31-MP04E03 (VHH, VHH in periplasmic extract; also called FJ1427_P035MP04E03; clone nr) VHH: QVQLVESGGGLVQAGGSLRLSCTGYGGAFTGYALGWFRQAPGKEREFVARINWSGSFTYYASSVKGRFTISRDNAKNTMYLQMNNLKPEDTAVYYCAADNPSTLATDYDNWGQGTQVTVSS in terms of OD (PE binding ELISA) is 0.495

Consider FJ1427_P035MP04F01 (VHH, VHH in periplasmic extract; also called clone nr) VHH: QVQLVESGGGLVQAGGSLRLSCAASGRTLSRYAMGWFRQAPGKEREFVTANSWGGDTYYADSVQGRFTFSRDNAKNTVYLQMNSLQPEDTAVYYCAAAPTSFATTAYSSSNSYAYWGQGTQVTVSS . Its measured OD (PE binding ELISA) is 0.085

So for FJ1427_P035MP04B05 (VHH, VHH in periplasmic extract; also called clone nr) VHH: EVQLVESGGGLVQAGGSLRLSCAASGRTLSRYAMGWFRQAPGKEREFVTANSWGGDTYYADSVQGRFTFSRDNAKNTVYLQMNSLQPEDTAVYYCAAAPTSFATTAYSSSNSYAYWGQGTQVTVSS , the logged OD (PE binding ELISA) turned out to be 0.063

// OD (PE binding ELISA) lookup, binder = FJ1427_P035MP04E09 (VHH, VHH in periplasmic extract; also called clone nr) VHH: QVQLVESGGGLVQAGGSLRLSCAASGRTLSRYAMGWFRQAPGKEREFVTANSWGGDTYYADSVQGRSTFSRDNAKNTVYLQMNSLQPEDTAVYYCAAAPTSFATTAYSSSNSYAYWGQGTQVTVSS , result: 0.07

The binder listed as 38-MP07A11 (VHH, VHH in periplasmic extract; also called FJ1427_P035MP07A11; clone nr) VHH: QVQLVESGGGLVQAGGSLRLSCAASGRSLSRDAMGWFRQAPGKEREFVAVMSWGGDTFYTDSVEGRFTFSRDNAKNAVYLEMNDLQPEDTAVYYCAAAPTSFATTAYSSSNSYSYWGRGTQVTVSS shows OD (PE binding ELISA) equal to 0.173
